measured.on: T1, human monomeric EGFR (EGFR.mmh) (human, UniProt P00533 25-647)
T1 construct: Soluble monomeric EGFR construct
assay: SPR 37C, mAb captured by anti-human Fc, EGFR.mmh analyte
Quick rule for you: t1/2 under 30 min gets Satisfied, anything else gets Not satisfied.

Is t1/2 of H1H153P (antibody, human IgG1, V domains shown, Human IgG1 Fc (H1H)) VH: QVQLVESGGGVVQPGKSLRLSCAASGFTFSIYGMNWVRQAPGKGLDWVAVISDDGSNKDYVDSVRGRFTISRDNSKNTLYLQMNSLSAEDTAVYYCAKDRITGTHYYGLDVWGQGTTVTVSS VL: DIQMTQSPSSLSASVGDRITITCRASQDIANYLAWFQQKPGNAPTSLIYAASILQSGVPSKFSGSGSGTDFTLTITSLQPEDFASYYCQQYNRKPWTFGRGTKVEIK strictly below 30 min? Not satisfied

Is t1/2 of H1H0085N (antibody, V domains shown, Tested in human IgG1 Fc format (H1H prefix); first obtained as H1M (mouse IgG1 Fc) from a hybridoma; also called H1M085N; H1H085N) VH: EVQLVESGGGLVQPGRSLRLSCAASGFTFDDYAMHWVRQAPGKGLEWVSGINWNSDKIAYADSVKGRFTISRDNAENSLFLQMNSLRPEDTALYYCVKRGDFWTEYYDYWGQGTLVTVSS VL: DIVMTQSPLSLPVTPGEPASISCRSSQSLLHSNGYNYLDWYLQKPGQSPHLLIYLVSTRASGVPDRFSGSGSGTDFTLKISRVEAEDVGVYYCIQALQTPWTFGQGTKVEIK strictly below 30 min? Satisfied

Is t1/2 of H1H161P (antibody, human IgG1, V domains shown, Human IgG1 Fc (H1H)) VH: QVQLVESGGGVVQPGRSLRLSCAASGFTFSNYGMYWVRQAPGKGLEWVTFISYDGSNKNYVDSMKGRFTISRDNSKNTLYLQMNSLRVEDTAVYYCAKDRISGTPWYGMDVWGQGTTVTVSS VL: DIQMTQSPSSLSASVGDRVTITCRASQDIADYLAWFQQKPGKAPKSLIFAASSLESWVPLKFSGSGSGTDFTLTISSLQPEDFATYYCQQYSRFPITFGQGTKVEIK strictly below 30 min? Not satisfied

Is t1/2 of H1H147P (antibody, human IgG1, V domains shown, Human IgG1 Fc (H1H)) VH: EVQLVESGPGLVQPSQTLSLTCTVSGGSINSGDFYWSWIRQHPGKGLEWIGHIYYSGITYYSPSLKSRLTISVDTSKNQFSLKLSSVTAADTAVYYCARKRVTGEVDYWGQGTLVTVSS VL: DIQMTQSPSSLSASVGDRITITCQANQDINNYLNWYQQKPGKAPKLLISDASNLETGVPSRFSGSGSGTDFTFTISSLQPEDIATYYCQQYDNLPPTFGQGTRLEIKR strictly below 30 min? Not satisfied

Is t1/2 of H1H143P (antibody, human IgG1, V domains shown, Human IgG1 Fc (H1H)) VH: QVQLQESGPGLVMPSQTLSLTCTVSGGSINSGDYYWNWIRQHPGKGLEWIGYIYYSEISYHNPSLKSRVTTSIDTSTNQFSLKLSSVTAADTAVYYCARDRVELRAFDIWGQGTMVTVSS VL: DIQMTQSPSSLSASVGDRVTITCQASQDISNYLNWYQQKPGKAPKLLIYDASNLETGVPSRFSGSGSGTDFTFTISSLQPEDIATYYCQHYDSLPLTFGQGTRLEIK strictly below 30 min? Satisfied
